molecular target: Arginase-2, mitochondrial (Homo sapiens); assay: in vitro enzyme assay to detect the production of urea directly proportional to the activity of Arginase II; format: functional; set-up: scale not given: in the data most compounds retested in dose-response had high values; conditions: 33.3 µM
RECORDED METRIC: Percent Effect (%)
Respond with the bare value in %.

Indicate its recorded Percent Effect; the compound in question is `CCOc1ccc(Cl)cc1CNCCCn1ccnc1`
-9.68

Complete the entry with Percent Effect for COc1ccccc1C(=O)N1Cc2cc(C)ccc2OCC1CN(C)C (centres undefined)
-1.62

----------
Measured Percent Effect by item
target: Ubiquitin-activating enzyme e1, putative (Leishmania donovani (strain BPK282A1)) (UniProt E9BSI1); experiment: Leishmania donovani Ubiquitin Activating Enzyme (LdE1); format: functional; parameters: scale not given: direction of the effect not stated beside the values; details: 30 µM
Sequence (E9BSI1 as listed by the source): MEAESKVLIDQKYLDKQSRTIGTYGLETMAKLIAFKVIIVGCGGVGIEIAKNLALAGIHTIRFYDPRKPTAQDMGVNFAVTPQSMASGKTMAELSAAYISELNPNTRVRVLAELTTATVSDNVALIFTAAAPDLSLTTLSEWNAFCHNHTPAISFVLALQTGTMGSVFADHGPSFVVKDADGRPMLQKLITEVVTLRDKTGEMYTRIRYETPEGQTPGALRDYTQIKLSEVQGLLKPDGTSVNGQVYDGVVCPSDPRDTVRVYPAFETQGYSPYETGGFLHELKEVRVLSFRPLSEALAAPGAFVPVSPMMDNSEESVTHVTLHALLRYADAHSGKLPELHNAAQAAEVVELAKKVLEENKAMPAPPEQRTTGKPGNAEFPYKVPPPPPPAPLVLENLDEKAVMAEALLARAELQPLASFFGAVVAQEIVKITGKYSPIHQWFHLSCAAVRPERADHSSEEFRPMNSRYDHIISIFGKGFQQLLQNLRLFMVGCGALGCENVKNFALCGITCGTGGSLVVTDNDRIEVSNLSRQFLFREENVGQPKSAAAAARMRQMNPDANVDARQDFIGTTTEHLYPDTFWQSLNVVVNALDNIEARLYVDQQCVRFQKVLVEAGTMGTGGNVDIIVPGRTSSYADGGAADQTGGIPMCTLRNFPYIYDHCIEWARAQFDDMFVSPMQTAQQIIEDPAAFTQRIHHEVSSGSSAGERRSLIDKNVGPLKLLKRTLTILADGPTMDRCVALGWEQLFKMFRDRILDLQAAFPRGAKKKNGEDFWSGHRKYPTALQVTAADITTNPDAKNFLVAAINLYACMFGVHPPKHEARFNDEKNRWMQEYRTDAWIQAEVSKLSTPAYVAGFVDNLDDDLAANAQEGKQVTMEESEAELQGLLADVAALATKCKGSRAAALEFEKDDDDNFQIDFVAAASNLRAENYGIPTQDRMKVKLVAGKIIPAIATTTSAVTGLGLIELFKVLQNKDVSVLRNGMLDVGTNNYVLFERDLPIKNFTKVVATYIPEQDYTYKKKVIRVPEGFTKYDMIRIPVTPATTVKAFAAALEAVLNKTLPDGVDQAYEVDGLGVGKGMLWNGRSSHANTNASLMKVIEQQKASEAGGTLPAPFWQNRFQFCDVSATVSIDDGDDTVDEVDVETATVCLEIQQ
Potency and affinity values are given separately.
Number only, in %; omit the unit.

Recorded results for 4 compounds are shown here.
[
  {
    "COMPOUND": "O=C(CCc1ccc(Cl)s1)N1CCCC(n2cncn2)C1 (stereo unspecified)",
    "Percent Effect / %": -2.53
  },
  {
    "COMPOUND": "c1ccc(CN2CC[C@@H]3O[C@H](COCc4ccncc4)CC[C@@H]32)nc1",
    "Percent Effect / %": 10.7
  },
  {
    "COMPOUND": "CC(C)n1c(C2CCCN(CCS(C)(=O)=O)C2)nc2ccccc21 (stereo unspecified)",
    "Percent Effect / %": 8.11
  },
  {
    "COMPOUND": "O=C(NCc1ccccn1)[C@H]1COC[C@H]2CN(Cc3ccoc3)C[C@H]21",
    "Percent Effect / %": 2.7
  }
]

Note down Percent Effect recorded for Cc1nonc1C(=O)N1CCCC(c2ncncc2-c2ccncc2)C1 (stereo unspecified)
8

Specify measured Percent Effect for `CCS(=O)(=O)c1ccc(N2CCC(NC(=O)c3cnn(C)c3)CC2)cc1` .
2.67

----------
molecular target: Protein translocase subunit SecA (Escherichia coli (strain K12)) (UniProt P10408); assay: Assay to Identify E. coli SecA ATPase Inhibitors; assay type: functional; parameters: scale not given: direction of the effect not stated beside the values; settings: 30 µM
Sequence (P10408 whole entry): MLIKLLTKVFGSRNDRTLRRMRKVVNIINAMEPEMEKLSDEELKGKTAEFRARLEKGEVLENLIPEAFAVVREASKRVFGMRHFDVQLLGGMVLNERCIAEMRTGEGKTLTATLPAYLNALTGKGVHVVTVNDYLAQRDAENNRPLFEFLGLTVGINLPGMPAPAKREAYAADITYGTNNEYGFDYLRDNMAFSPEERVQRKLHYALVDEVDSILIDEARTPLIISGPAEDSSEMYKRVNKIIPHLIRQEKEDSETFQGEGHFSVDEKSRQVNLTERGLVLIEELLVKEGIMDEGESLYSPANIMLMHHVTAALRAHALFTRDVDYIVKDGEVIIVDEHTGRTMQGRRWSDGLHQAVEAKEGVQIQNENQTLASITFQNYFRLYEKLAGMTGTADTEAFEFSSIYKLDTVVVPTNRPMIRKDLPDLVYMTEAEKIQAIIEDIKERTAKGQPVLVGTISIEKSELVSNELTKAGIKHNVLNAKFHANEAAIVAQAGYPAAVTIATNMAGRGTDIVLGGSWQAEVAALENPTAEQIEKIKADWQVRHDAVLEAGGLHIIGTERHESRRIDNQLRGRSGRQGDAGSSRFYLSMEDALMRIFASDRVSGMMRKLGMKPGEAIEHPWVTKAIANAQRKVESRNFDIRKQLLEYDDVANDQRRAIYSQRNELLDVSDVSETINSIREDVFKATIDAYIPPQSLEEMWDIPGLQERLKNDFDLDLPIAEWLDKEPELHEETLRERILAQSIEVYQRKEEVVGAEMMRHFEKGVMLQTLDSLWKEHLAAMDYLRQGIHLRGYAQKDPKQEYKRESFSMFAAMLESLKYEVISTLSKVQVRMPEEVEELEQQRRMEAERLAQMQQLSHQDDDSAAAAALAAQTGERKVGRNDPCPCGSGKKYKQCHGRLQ
Potency and affinity values are given separately.
RECORDED METRIC: Percent Effect (%)
# number only, unit % dropped from output

Field: example entries. Status: answers known.
[
  {
    "MOLECULE": "O=C(c1cc(COc2ccc3c(c2)OCO3)[nH]n1)N1CC=CC1CO (configuration not stated)",
    "Percent Effect [%]": -3.88
  },
  {
    "MOLECULE": "CCCc1n[nH]c(C2CN(C(=O)c3ccco3)CCO2)n1 (configuration not stated)",
    "Percent Effect [%]": -3.05
  },
  {
    "MOLECULE": "CN(C)CCOCC1CN(C(=O)[C@H]2CCCO2)Cc2ccnn2C1 (some centres not stated)",
    "Percent Effect [%]": -0.666
  },
  {
    "MOLECULE": "Cc1cc(CC(=O)N2CCCC2c2nc(C(C)C)no2)on1 (configuration not stated)",
    "Percent Effect [%]": -3.03
  },
  {
    "MOLECULE": "CCOCCCC(=O)NCc1cn2cc(Br)ccc2n1",
    "Percent Effect [%]": -1.32
  },
  {
    "MOLECULE": "CNC(=O)Nc1cc(-c2ccccc2C)nn1CCO",
    "Percent Effect [%]": -4.2
  }
]

Turning to the following molecule.
Retrieve Percent Effect measured for CCc1nc(C2CCCN(C(=O)c3cnn(CC)c3)C2)no1 (configuration not stated) and print it.
-7.03

----------
biological target: Arginase-2, mitochondrial (Homo sapiens) (UniProt P78540); assay: in vitro enzyme assay to detect the production of urea directly proportional to the activity of Arginase II; assay type: functional; parameters: scale not given: in the data most compounds retested in dose-response had high values; conditions: 33.3 µM
Sequence (P78540 whole entry): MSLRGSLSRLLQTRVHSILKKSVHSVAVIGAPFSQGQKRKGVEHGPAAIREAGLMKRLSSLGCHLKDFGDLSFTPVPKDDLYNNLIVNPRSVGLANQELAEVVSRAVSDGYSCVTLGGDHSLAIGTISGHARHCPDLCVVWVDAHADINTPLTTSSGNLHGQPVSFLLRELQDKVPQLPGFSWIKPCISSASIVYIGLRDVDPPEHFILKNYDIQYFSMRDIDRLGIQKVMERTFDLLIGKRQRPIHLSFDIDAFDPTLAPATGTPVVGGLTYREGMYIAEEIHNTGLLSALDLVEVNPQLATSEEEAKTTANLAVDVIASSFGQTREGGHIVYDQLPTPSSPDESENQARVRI
Catalogue of compounds with associated Percent Effect
Give the value, in units of %, as a plain number.

[
  {
    "COMPOUND": "O=C(CC1CC1)NCc1cc(=O)n2c(n1)CN(Cc1ccoc1)CCC2",
    "UNITS TEXT": "%",
    "QUANTITATIVE RESULT": -1.2
  },
  {
    "COMPOUND": "CC(=O)N1CCN([C@@H]2CC[C@@H](NC(=O)c3cncc(C)c3)[C@H]2O)CC1",
    "UNITS TEXT": "%",
    "QUANTITATIVE RESULT": -2.09
  },
  {
    "COMPOUND": "Cn1cnc2c1CCN(Cc1nc(COc3ccc(F)cc3)no1)C2",
    "UNITS TEXT": "%",
    "QUANTITATIVE RESULT": 1.44
  },
  {
    "COMPOUND": "Cn1nccc1C(=O)N1CCOC(Cc2cccc(C(F)(F)F)c2)C1 (stereo unspecified)",
    "UNITS TEXT": "%",
    "QUANTITATIVE RESULT": -0.521
  },
  {
    "COMPOUND": "COc1ccc(-n2ccc(C(=O)N3CCN(C)CC3C)n2)cc1 (stereo unspecified)",
    "UNITS TEXT": "%",
    "QUANTITATIVE RESULT": -0.712
  }
]

Attention now shifts to the item below.
Check the records and state Percent Effect for Cc1cc(OCC(=O)NC(C)c2ccc(N3CCOCC3)cc2)no1 (stereo unspecified)
-89.7

----------
biological target: Ubiquitin-activating enzyme e1, putative (Leishmania donovani (strain BPK282A1)); experiment: Leishmania donovani Ubiquitin Activating Enzyme (LdE1); type: functional; set-up: scale not given: direction of the effect not stated beside the values; settings: 30 µM
Measured potencies and affinities stand elsewhere.
RECORDED METRIC: Percent Effect (%)
Form entry: value (%) — number only.

Example compounds with recorded Percent Effect:
[
  {
    "COMPOUND": "CC(C)NC(=O)CS(=O)(=O)Cc1cc(Cl)c2c(c1)OCCO2",
    "UNITS TEXT": "%",
    "QUANTITATIVE RESULT": 20.2
  },
  {
    "COMPOUND": "CC(C)N1CCC(Cc2cc(-c3cccc(C(=O)O)c3)ncn2)C1 (configuration not stated)",
    "UNITS TEXT": "%",
    "QUANTITATIVE RESULT": -9.46
  },
  {
    "COMPOUND": "COCCN1CCC(Cc2cncc(-c3ccc(C(=O)O)cc3)n2)C1 (configuration not stated)",
    "UNITS TEXT": "%",
    "QUANTITATIVE RESULT": 1.35
  },
  {
    "COMPOUND": "CCc1nnc2n1CCN(C(=O)c1ccc3nc(C)c(C)nc3c1)C2",
    "UNITS TEXT": "%",
    "QUANTITATIVE RESULT": 1.39
  },
  {
    "COMPOUND": "COCCC1(CO)CCCN(Cc2ccc(F)c(C)c2)C1 (configuration not stated)",
    "UNITS TEXT": "%",
    "QUANTITATIVE RESULT": 0
  },
  {
    "COMPOUND": "COCC(=O)N(C)Cc1cccc(Cl)c1",
    "UNITS TEXT": "%",
    "QUANTITATIVE RESULT": 10.5
  }
]

Give recorded Percent Effect. Cc1nc(CN(C)C2CCN(Cc3nc4ccccc4s3)C2)no1 (configuration not stated)
5.26

Look up and report measured Percent Effect for this entry: `CC(C)N(C)S(=O)(=O)N(C)Cc1ccc2c(c1)OCO2`
15.6

Please give measured Percent Effect of the following entry: `Cc1ccc(C(=O)N2CCN(CCCSCC#N)CC2)o1`
-5.48

Dear colleague, please send me the reported Percent Effect for Cn1ccc(C(=O)N2CCCC(n3cncn3)C2)cc1=O (configuration not stated) when you can.
10.4

Indicate its recorded Percent Effect; the compound in question is COCCCN1CCCN(C(C)C(=O)Nc2cccc(I)c2)CC1 (configuration not stated)
-5.41

Give the reported value of Percent Effect for this record: CN(C)S(=O)(=O)N1CCC2(COCc3cnc(-c4ccccc4)nc32)C1 (configuration not stated)
13.3

----------
Entries and their measured Percent Effect follow.
molecular target: Tyrosyl-tRNA synthetase, putative (Trypanosoma cruzi (strain CL Brener)); assay: Trypanosoma cruzi tyrosyl tRNA synthetase (TcYRS) SOP; assay type: functional; design: scale not given: direction of the effect not stated beside the values; details: 30 µM
Answer in %, number only, no unit symbol.

Recorded results for 10 molecules are shown here.
[
  {
    "MOLECULE": "Cn1c(Cn2ccnc2)nnc1C1CCN(Cc2cccnc2N)CC1",
    "TEST TARGET": "Tyrosyl-tRNA synthetase, putative (Trypanosoma cruzi (strain CL Brener))",
    "QUANTITATIVE RESULT": 2.56
  },
  {
    "MOLECULE": "Cc1cnc2n(c1=O)C(CC(=O)NCc1cc(-c3cccs3)on1)CS2 (stereo unspecified)",
    "TEST TARGET": "Tyrosyl-tRNA synthetase, putative (Trypanosoma cruzi (strain CL Brener))",
    "QUANTITATIVE RESULT": 16.7
  },
  {
    "MOLECULE": "O=C(N1CCCC1)N1CCO[C@H]2[C@@H](Oc3ccccn3)CC[C@@H]21",
    "TEST TARGET": "Tyrosyl-tRNA synthetase, putative (Trypanosoma cruzi (strain CL Brener))",
    "QUANTITATIVE RESULT": 3.85
  },
  {
    "MOLECULE": "Cc1ccc(CN2CC(C(=O)Nc3ccccc3)C3(CCOCC3)C2)s1 (stereo unspecified)",
    "TEST TARGET": "Tyrosyl-tRNA synthetase, putative (Trypanosoma cruzi (strain CL Brener))",
    "QUANTITATIVE RESULT": 25
  },
  {
    "MOLECULE": "Cc1ccoc1C(=O)N1CCO[C@H]2[C@H](OCCN(C)C)CC[C@@H]21",
    "TEST TARGET": "Tyrosyl-tRNA synthetase, putative (Trypanosoma cruzi (strain CL Brener))",
    "QUANTITATIVE RESULT": 10
  },
  {
    "MOLECULE": "CN(C)CCn1c(=O)oc2ccc(NC(=O)C3CCCO3)cc21 (stereo unspecified)",
    "TEST TARGET": "Tyrosyl-tRNA synthetase, putative (Trypanosoma cruzi (strain CL Brener))",
    "QUANTITATIVE RESULT": 11.1
  },
  {
    "MOLECULE": "O=C1NCCN1C1CCN(CCc2cccs2)CC1",
    "TEST TARGET": "Tyrosyl-tRNA synthetase, putative (Trypanosoma cruzi (strain CL Brener))",
    "QUANTITATIVE RESULT": 23.5
  },
  {
    "MOLECULE": "CCn1cnnc1C1CCN(C(=O)c2cccc3c2ccn3C)CC1",
    "TEST TARGET": "Tyrosyl-tRNA synthetase, putative (Trypanosoma cruzi (strain CL Brener))",
    "QUANTITATIVE RESULT": 24.4
  },
  {
    "MOLECULE": "CN1C(=O)CC(C(=O)O)C12CCN(Cc1ccc(F)cc1Cl)CC2 (stereo unspecified)",
    "TEST TARGET": "Tyrosyl-tRNA synthetase, putative (Trypanosoma cruzi (strain CL Brener))",
    "QUANTITATIVE RESULT": 13.6
  },
  {
    "MOLECULE": "CN(Cc1nc(N)c2ccccc2n1)CC1CCCN1c1cccnn1 (stereo unspecified)",
    "TEST TARGET": "Tyrosyl-tRNA synthetase, putative (Trypanosoma cruzi (strain CL Brener))",
    "QUANTITATIVE RESULT": 18.8
  }
]

Lab note: next molecule to report on.
Tell me Percent Effect reported for CC(=O)Nc1nc(C(=O)NC(C)c2ccc3c(c2)OCCO3)cs1 (stereo unspecified)
21.2

From: ChEMBL document CHEMBL3988442
